biological target: NEK2 (human); test: radiometric filter-binding kinase assay, Kinase HotSpot; conditions: compound 0.5 µM; ATP 10 µM
Attribute: residual activity
Observable: residual activity (%)

>  <Compound>
CO[C@H]1CC2CC[C@@H](C)[C@@](O)(O2)C(=O)C(=O)N2CCCC[C@H]2C(=O)OC([C@H](C)C[C@@H]2CC[C@@H](O)[C@H](OC)C2)CC(=O)[C@H](C)/C=C(\C)[C@@H](O)[C@@H](OC)C(=O)[C@H](C)C[C@H](C)/C=C/C=C/C=C/1C (some centres undefined)

>  <System Under Test>
NEK2 (human)

>  <Recorded Number>
107

$$$$
>  <Compound>
O=C1NC(=O)C(c2cn(CCCn3ccnc3)c3ccccc23)=C1Nc1ccccc1

>  <System Under Test>
NEK2 (human)

>  <Recorded Number>
106

$$$$
>  <Compound>
CCCC(=O)Oc1ccc2[nH]c(C(=O)c3cc4ccccc4[nH]3)cc2c1

>  <System Under Test>
NEK2 (human)

>  <Recorded Number>
86.8

$$$$
>  <Compound>
Nc1ccc2ncnc(NCCc3ccc(Oc4ccccc4)cc3)c2c1

>  <System Under Test>
NEK2 (human)

>  <Recorded Number>
90

$$$$
>  <Compound>
CC#CC(=O)Nc1cc2c(Nc3ccc(F)c(Cl)c3)ncnc2cn1

>  <System Under Test>
NEK2 (human)

>  <Recorded Number>
103

$$$$
>  <Compound>
COc1ccc2c(c[n+](C)c3c4cc5c(cc4ccc23)OCO5)c1OC

>  <System Under Test>
NEK2 (human)

>  <Recorded Number>
98.6

$$$$
>  <Compound>
Nc1cccc(-c2cc3c(Oc4cccc(O)c4)ncnc3[nH]2)c1

>  <System Under Test>
NEK2 (human)

>  <Recorded Number>
98

$$$$
>  <Compound>
c1ccc(-c2n[nH]cc2-c2ccnc3ccccc23)nc1

>  <System Under Test>
NEK2 (human)

>  <Recorded Number>
97

$$$$
>  <Compound>
CCOC(=O)c1c(C)[nH]c(/C=C2\C(=O)Nc3ccccc32)c1C

>  <System Under Test>
NEK2 (human)

>  <Recorded Number>
91.4

$$$$

----------
molecular target: NEK9 (human) (UniProt Q8TD19); assay: radiometric filter-binding kinase assay, Kinase HotSpot; conditions: compound 0.5 µM; ATP 10 µM
Sequence (Q8TD19 whole entry, looked up): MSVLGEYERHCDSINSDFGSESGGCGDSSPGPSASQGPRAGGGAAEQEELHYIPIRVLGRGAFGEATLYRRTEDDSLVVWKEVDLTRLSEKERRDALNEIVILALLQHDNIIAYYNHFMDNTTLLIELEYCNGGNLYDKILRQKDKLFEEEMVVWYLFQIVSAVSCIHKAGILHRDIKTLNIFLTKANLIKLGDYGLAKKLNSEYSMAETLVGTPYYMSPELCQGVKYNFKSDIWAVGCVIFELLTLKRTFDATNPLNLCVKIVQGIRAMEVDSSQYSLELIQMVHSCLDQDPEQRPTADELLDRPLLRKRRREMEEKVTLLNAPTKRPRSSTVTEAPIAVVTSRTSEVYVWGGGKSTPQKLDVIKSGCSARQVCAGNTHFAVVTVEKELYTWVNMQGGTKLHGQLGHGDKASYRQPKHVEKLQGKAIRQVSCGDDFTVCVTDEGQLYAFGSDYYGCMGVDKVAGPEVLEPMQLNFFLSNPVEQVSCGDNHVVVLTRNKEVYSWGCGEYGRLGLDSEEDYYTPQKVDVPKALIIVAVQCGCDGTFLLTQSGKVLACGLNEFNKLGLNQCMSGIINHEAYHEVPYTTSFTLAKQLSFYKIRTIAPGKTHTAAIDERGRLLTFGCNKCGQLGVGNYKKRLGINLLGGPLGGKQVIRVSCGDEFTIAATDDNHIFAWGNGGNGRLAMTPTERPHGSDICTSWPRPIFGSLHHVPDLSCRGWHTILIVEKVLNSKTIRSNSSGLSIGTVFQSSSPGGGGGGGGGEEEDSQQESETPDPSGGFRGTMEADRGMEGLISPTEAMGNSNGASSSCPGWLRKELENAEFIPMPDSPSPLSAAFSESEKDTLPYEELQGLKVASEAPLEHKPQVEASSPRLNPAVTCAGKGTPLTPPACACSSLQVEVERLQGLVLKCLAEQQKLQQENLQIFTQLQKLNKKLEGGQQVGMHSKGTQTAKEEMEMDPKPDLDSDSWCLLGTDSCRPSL
Reported residual activity by item:

>  <Compound>
O=c1cc(N2CCOCC2)oc2c1ccc1ccccc12

>  <residual activity [%]>
102

$$$$
>  <Compound>
O=C1NC(=O)c2c1c1c3ccccc3n3c1c1c2c2ccccc2n1C1CCC3O1

>  <residual activity [%]>
23.4

$$$$
>  <Compound>
CC[n+]1c(/C=C/N(C)c2ccccc2)n(-c2ccccc2)c2ccc(-c3nc4ccccc4s3)cc21

>  <residual activity [%]>
108

$$$$
>  <Compound>
COc1ccc2c(c[n+](C)c3c4cc5c(cc4ccc23)OCO5)c1OC

>  <residual activity [%]>
97

$$$$
>  <Compound>
O=C1Nc2ccc(Cl)cc2/C1=C/c1cc(Cl)c(O)c(Cl)c1

>  <residual activity [%]>
103

$$$$
>  <Compound>
O=C1NC(=O)/C(=C/c2ccc3c(c2)OC(F)(F)O3)S1

>  <residual activity [%]>
109

$$$$
>  <Compound>
Nc1cccc(-c2cc3c(Oc4cccc(O)c4)ncnc3[nH]2)c1

>  <residual activity [%]>
103

$$$$
>  <Compound>
CC(C)N(CCC(=O)c1ccc2ccccc2c1)Cc1ccccc1

>  <residual activity [%]>
96.4

$$$$
>  <Compound>
O=C1NC(=O)C(c2cn(CCCn3ccnc3)c3ccccc23)=C1Nc1ccccc1

>  <residual activity [%]>
89.1

$$$$
>  <Compound>
CC#CC(=O)Nc1cc2c(Nc3ccc(F)c(Cl)c3)ncnc2cn1

>  <residual activity [%]>
104

$$$$
>  <Compound>
CO[C@H]1CC2CC[C@@H](C)[C@@](O)(O2)C(=O)C(=O)N2CCCC[C@H]2C(=O)OC([C@H](C)C[C@@H]2CC[C@@H](O)[C@H](OC)C2)CC(=O)[C@H](C)/C=C(\C)[C@@H](O)[C@@H](OC)C(=O)[C@H](C)C[C@H](C)/C=C/C=C/C=C/1C (stereo partly specified)

>  <residual activity [%]>
98.2

$$$$
>  <Compound>
CC(=O)c1ccc(N2CCOCC2)cc1O

>  <residual activity [%]>
93.9

$$$$
>  <Compound>
c1ccc(-c2n[nH]cc2-c2ccnc3ccccc23)nc1

>  <residual activity [%]>
94.7

$$$$
>  <Compound>
O=S(=O)(c1cccc2cnccc12)N1CCCNCC1

>  <residual activity [%]>
95.9

$$$$
>  <Compound>
Cc1ccc(NC2=CC(=O)c3sc(C)nc3C2=O)cc1

>  <residual activity [%]>
99.4

$$$$
>  <Compound>
c1ccc(-c2n[nH]c3c2oc2ccccc23)cc1

>  <residual activity [%]>
99

$$$$
>  <Compound>
CCCC(=O)Oc1ccc2[nH]c(C(=O)c3cc4ccccc4[nH]3)cc2c1

>  <residual activity [%]>
110

$$$$
>  <Compound>
CCN(CC)CCNC(=O)c1c(C)[nH]c(/C=C2\C(=O)Nc3ccc(F)cc32)c1C

>  <residual activity [%]>
100

$$$$
>  <Compound>
COc1ccc(COc2ccc(Cc3cnc(N)nc3N)cc2OC)cc1

>  <residual activity [%]>
93.3

$$$$
>  <Compound>
Cc1ccc(Nc2nccc(N(C)c3ccc4c(C)n(C)nc4c3)n2)cc1S(N)(=O)=O

>  <residual activity [%]>
95.8

$$$$
>  <Compound>
Nc1ccc2ncnc(NCCc3ccc(Oc4ccccc4)cc3)c2c1

>  <residual activity [%]>
95.8

$$$$

----------
target: CSNK1G1 (human); test: radiometric filter-binding kinase assay, Kinase HotSpot; conditions: compound 0.5 µM; ATP 10 µM
Entries annotated with measured residual activity

>  <Compound Structure>
O=C1NC(=O)C(c2cn(CCCn3ccnc3)c3ccccc23)=C1Nc1ccccc1

>  <System Under Test>
CSNK1G1 (human)

>  <residual activity>
95%

$$$$
>  <Compound Structure>
Nc1ccc2ncnc(NCCc3ccc(Oc4ccccc4)cc3)c2c1

>  <System Under Test>
CSNK1G1 (human)

>  <residual activity>
97.6%

$$$$
>  <Compound Structure>
O=C1Nc2ccc(Cl)cc2/C1=C/c1cc(Cl)c(O)c(Cl)c1

>  <System Under Test>
CSNK1G1 (human)

>  <residual activity>
89%

$$$$
>  <Compound Structure>
O=C(Nc1cccc(Nc2nccc(Nc3cccc(C(F)(F)F)c3)n2)c1)C1CC1

>  <System Under Test>
CSNK1G1 (human)

>  <residual activity>
105%

$$$$
>  <Compound Structure>
c1ccc(-c2n[nH]c3c2oc2ccccc23)cc1

>  <System Under Test>
CSNK1G1 (human)

>  <residual activity>
91.6%

$$$$
>  <Compound Structure>
O=C1NC(=O)/C(=C/c2ccc3c(c2)OC(F)(F)O3)S1

>  <System Under Test>
CSNK1G1 (human)

>  <residual activity>
75.5%

$$$$

----------
Measured residual activity, listed per entry.
target: BLK (human); test: radiometric filter-binding kinase assay, Kinase HotSpot; details: compound 0.5 µM; ATP 10 µM
Observable: residual activity (%)

>  <Compound Structure>
O=C1NC(=O)/C(=C/c2ccc3c(c2)OC(F)(F)O3)S1

>  <System Under Test>
BLK (human)

>  <Recorded Number>
99.2

$$$$
>  <Compound Structure>
CCCC(=O)Oc1ccc2[nH]c(C(=O)c3cc4ccccc4[nH]3)cc2c1

>  <System Under Test>
BLK (human)

>  <Recorded Number>
102

$$$$
>  <Compound Structure>
CCN(CC)CCNC(=O)c1c(C)[nH]c(/C=C2\C(=O)Nc3ccc(F)cc32)c1C

>  <System Under Test>
BLK (human)

>  <Recorded Number>
28.7

$$$$
>  <Compound Structure>
N#CC(C#N)=C(N)/C(C#N)=C/c1ccc(O)cc1

>  <System Under Test>
BLK (human)

>  <Recorded Number>
101

$$$$
>  <Compound Structure>
CCN(CC)CCNC(=O)c1c(C)[nH]c(/C=C2\C(=O)Nc3ccc(Cl)cc32)c1C

>  <System Under Test>
BLK (human)

>  <Recorded Number>
15.8

$$$$
>  <Compound Structure>
Nc1cccc(-c2cc3c(Oc4cccc(O)c4)ncnc3[nH]2)c1

>  <System Under Test>
BLK (human)

>  <Recorded Number>
38.1

$$$$
>  <Compound Structure>
CCN(CC)C(=O)c1ccc(Nc2nc(OCC3CCCCC3)c3nc[nH]c3n2)cc1

>  <System Under Test>
BLK (human)

>  <Recorded Number>
60.9

$$$$
>  <Compound Structure>
CC[n+]1c(/C=C/N(C)c2ccccc2)n(-c2ccccc2)c2ccc(-c3nc4ccccc4s3)cc21

>  <System Under Test>
BLK (human)

>  <Recorded Number>
99.1

$$$$
>  <Compound Structure>
Cc1ccc(S(=O)(=O)/C=C/C#N)cc1

>  <System Under Test>
BLK (human)

>  <Recorded Number>
103

$$$$
>  <Compound Structure>
O=C1NC(=O)C(c2cn(CCCn3ccnc3)c3ccccc23)=C1Nc1ccccc1

>  <System Under Test>
BLK (human)

>  <Recorded Number>
90.9

$$$$

The measurements presented in this section are drawn from the kinase profiling compilation of Christmann-Franck et al. (2016).
